Target: EZH2 (Homo sapiens (Human), UniProt Q15910)
Sequence (Q15910 other isoform, or with tags, fused parts or gaps): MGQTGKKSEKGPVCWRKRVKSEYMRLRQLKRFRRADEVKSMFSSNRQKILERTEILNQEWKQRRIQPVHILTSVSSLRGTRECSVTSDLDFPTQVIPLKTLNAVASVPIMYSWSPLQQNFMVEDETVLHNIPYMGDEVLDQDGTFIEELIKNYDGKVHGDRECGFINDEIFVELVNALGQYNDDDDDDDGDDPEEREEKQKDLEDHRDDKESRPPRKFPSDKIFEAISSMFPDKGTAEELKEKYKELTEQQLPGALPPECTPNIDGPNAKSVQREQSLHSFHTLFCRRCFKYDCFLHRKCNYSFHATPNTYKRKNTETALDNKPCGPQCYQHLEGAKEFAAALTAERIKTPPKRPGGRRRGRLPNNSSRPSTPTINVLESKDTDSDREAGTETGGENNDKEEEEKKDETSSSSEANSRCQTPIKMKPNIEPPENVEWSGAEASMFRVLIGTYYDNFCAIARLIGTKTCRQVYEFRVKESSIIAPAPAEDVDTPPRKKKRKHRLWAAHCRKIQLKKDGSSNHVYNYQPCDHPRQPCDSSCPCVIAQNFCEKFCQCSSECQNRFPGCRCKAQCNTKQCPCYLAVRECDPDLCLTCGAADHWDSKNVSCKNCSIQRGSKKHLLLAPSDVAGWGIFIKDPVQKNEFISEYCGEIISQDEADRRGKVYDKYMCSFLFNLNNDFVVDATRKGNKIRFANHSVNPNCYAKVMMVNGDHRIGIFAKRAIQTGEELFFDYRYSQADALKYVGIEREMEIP
Sequence (O75530 whole entry partner): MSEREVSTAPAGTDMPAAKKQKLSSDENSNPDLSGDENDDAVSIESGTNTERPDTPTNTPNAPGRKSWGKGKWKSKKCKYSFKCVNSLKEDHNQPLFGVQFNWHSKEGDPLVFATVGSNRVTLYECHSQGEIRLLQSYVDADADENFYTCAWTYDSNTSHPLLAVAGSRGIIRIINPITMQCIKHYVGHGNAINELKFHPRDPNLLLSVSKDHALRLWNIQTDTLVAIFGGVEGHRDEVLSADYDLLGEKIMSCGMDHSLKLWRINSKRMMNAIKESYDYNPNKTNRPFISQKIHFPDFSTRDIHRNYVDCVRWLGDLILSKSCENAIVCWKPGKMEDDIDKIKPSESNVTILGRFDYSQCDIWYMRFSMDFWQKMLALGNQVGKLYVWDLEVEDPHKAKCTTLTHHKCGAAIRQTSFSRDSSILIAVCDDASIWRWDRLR
Sequence (Q15022 whole entry partner): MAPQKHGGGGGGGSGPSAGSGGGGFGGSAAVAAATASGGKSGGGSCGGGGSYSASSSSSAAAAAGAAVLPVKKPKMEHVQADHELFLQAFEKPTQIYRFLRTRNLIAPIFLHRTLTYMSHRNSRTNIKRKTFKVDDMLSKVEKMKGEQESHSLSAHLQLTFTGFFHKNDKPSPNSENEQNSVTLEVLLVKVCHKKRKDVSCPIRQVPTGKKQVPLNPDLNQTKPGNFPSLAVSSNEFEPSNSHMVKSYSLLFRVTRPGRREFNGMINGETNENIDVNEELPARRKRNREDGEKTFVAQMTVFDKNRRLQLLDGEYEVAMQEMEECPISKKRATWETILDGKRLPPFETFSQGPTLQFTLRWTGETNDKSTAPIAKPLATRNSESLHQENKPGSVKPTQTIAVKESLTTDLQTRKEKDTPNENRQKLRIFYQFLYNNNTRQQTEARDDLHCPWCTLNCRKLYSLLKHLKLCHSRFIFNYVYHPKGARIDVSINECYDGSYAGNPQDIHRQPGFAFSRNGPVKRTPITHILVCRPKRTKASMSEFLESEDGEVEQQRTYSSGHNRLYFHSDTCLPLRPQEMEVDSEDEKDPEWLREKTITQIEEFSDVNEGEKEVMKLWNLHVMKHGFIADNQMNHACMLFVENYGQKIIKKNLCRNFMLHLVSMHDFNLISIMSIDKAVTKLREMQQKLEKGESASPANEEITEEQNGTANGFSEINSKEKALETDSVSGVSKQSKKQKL
Sequence (Q09028 whole entry partner): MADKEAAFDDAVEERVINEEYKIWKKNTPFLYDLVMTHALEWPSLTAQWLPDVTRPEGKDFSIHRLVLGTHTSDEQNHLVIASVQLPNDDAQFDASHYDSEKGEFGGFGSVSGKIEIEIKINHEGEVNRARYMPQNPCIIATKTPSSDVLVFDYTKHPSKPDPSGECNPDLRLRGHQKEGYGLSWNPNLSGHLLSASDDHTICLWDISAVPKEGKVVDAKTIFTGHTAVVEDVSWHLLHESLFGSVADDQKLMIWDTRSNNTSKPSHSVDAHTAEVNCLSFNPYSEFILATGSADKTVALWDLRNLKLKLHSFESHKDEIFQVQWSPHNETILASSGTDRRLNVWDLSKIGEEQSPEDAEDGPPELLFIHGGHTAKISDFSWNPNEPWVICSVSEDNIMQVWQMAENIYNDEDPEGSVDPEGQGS
Assay: PRC2 enzyme assay on peptide substrates
Format: biochemical
Settings: PRC2 enzyme assays on peptide substrates; 4 nM enzyme, 30 min preincubation at 25° C.; read-out: EZH2 IC50
Text: General Materials. S-adenosylmethionine (SAM), S-adenosylhomocyteine (SAH), bicine, KCl, Tween20, dimethylsulfoxide (DMSO) and bovine skin gelatin (BSG) were purchased from Sigma-Aldrich at the highest level of purity possible. Dithiothreitol (DTT) was purchased from EMD. ^3H-SAM was purchased from American Radiolabeled Chemicals with a specific activity of 80 Ci/mmol. 384-well streptavidin Flashplates were purchased from PerkinElmer. Substrates. […] The sequences are listed below. […]
IC50: recorded values
REPORTED_PROPERTY: IC50

• Cc1cc(COCCN(C)C)c(CNC(=O)c2cc(Br)cc3c2cnn3C2CCCC2)c(=O)[nH]1 [Compound D-85] = 3000 to 10000 nM
• Cc1cc(C)c(CNC(=O)c2cc(-c3ccc(CN4CCOCC4)cn3)cc3c2cnn3C2CCCC2)c(=O)[nH]1 [Compound C-15] = < 300 nM
• Cc1cc(C)c(CNC(=O)c2cc(C3=CCN(C(=O)C(O)CN)CC3)nc3c2cnn3C(C)C)c(=O)[nH]1 (stereo not shown) [Compound B-70] = 300 to 1000 nM
• Cc1cc(C)c(CNC(=O)c2cc(N)nc3c2cnn3C(C)C)c(=O)[nH]1 [Compound B-125] = 3000 to 10000 nM
• Cc1cc(C)c(CNC(=O)c2cccc3c2cnn3C2CCCC2)c(=O)[nH]1 [Compound D-66] = 300 to 1000 nM
• Cc1cc(C)c(CNC(=O)c2cc(C3=CC(C)(C)NC(C)(C)C3)nc3c2cnn3C2CCCCC2)c(=O)[nH]1 [Compound B-16] = < 300 nM
• Cc1cc(C)c(CNC(=O)c2cc(CN3CCOCC3)cc3c2cnn3C2CCCC2)c(=O)[nH]1 [Compound D-64] = 300 to 1000 nM

====

molecular target: UniProtKB Q15910; assay: PRC2 enzyme assay on peptide substrates; type: biochemical; settings: PRC2 enzyme assays on peptide substrates; 4 nM enzyme, 30 min preincubation at 25° C.; read-out: EZH2 IC50
pIC50: −log10 of the molar value.
pIC50: recorded values
REPORTED_PROPERTY: pIC50

- Cc1cc(C)c(CNC(=O)c2cc(-c3ccc(N4CCNCC4)nc3)nc3c2cnn3C(C)C)c(=O)[nH]1: > 6.52
- Cc1cc(CN(C)C)c(CNC(=O)c2cc(-c3ccc(CN4CCOCC4)cc3)cc3c2cnn3C2CCCC2)c(=O)[nH]1: > 6.52
- Cc1cc(C)c(CNC(=O)c2cc(N3CCC(N(C)C)CC3)nc3c2cnn3C(C)C)c(=O)[nH]1: 5.52 to 6.00
- Cc1cc(C)c(CNC(=O)c2cc(-c3cccc(C[N+](C)(C)CCO)c3)cc3c2cnn3C2CCCC2)c(=O)[nH]1: > 6.52
- Cc1[nH]c(=O)c(CNC(=O)c2cc(C3CC(C)(C)NC(C)(C)C3)nc3c2cnn3C(C)C)c(C)c1Cc1ccccc1: 4.30 to 5.00
- Cc1ccc(CNC(=O)c2cc(-c3cccc(CN4CCN(C)CC4)c3)nc3c2cnn3C(C)C)c(=O)[nH]1: 4.30 to 5.00
- Cc1cc(C)c(CNC(=O)c2cc(Br)cc3c2cnn3C2CCN(C(=O)C3CNC3)CC2)c(=O)[nH]1: > 6.52

====

molecular target: EZH2 (Homo sapiens (Human), UniProt Q15910); assay: PRC2 enzyme assay on peptide substrates; format: biochemical; details: PRC2 enzyme assays on peptide substrates; 4 nM enzyme, 30 min preincubation at 25° C.; read-out: EZH2 IC50
pIC50: −log10 of the molar value.
pIC50: recorded values
REPORTED_PROPERTY: pIC50

• CC(=O)N1CCC(n2ncc3c(C(=O)NCc4c(C)cc(C)[nH]c4=O)cc(C4=CC(C)(C)NC(C)(C)C4)nc32)CC1 = 6.00 to 6.52
• Cc1cc(C)c(CNC(=O)c2cc(-c3cccc(CNCCN)c3)nc3c2cnn3C(C)C)c(=O)[nH]1 = 6.00 to 6.52
• Cc1cc(C)c(CNC(=O)c2cc(-c3ccc(COCCCN(C)C)cc3)cc3c2cnn3C2CCCC2)c(=O)[nH]1 = > 6.52
• Cc1cc(C)c(CNC(=O)c2cc(-c3ccc(N4CCNCC4)cc3)nc3c2cnn3C(C)C)c(=O)[nH]1 = > 6.52
• Cc1cc(C)c(CNC(=O)c2cc(O)nc3c2cnn3C(C)C)c(=O)[nH]1 = 4.30 to 5.00
• CC(=O)N1CCC(n2ncc3c(C(=O)NCc4c(C)cc(C)[nH]c4=O)cc(Br)cc32)CC1 = 6.00 to 6.52
• Cc1cc(C)c(CNC(=O)c2cc(C3=CCN(C(=O)C4CCNCC4)CC3)cc3c2cnn3C2CCCC2)c(=O)[nH]1 = > 6.52
• Cc1cc(C)c(CNC(=O)c2cc(C3=CCN(C(=O)C4CCN(C)C4)CC3)nc3c2cnn3C(C)C)c(=O)[nH]1 (centres unmarked) = > 6.52
• Cc1cc(C)c(CNC(=O)c2cc(C3CCN(C)CC3)nc3c2cnn3C(C)C)c(=O)[nH]1 = 6.00 to 6.52
• Cc1cc(C)c(CNC(=O)c2cc(Br)cc3c2cnn3C2CCN(C(=O)C(C)C)CC2)c(=O)[nH]1 = > 6.52
• Cc1cc(C)c(CNC(=O)c2cc(-c3ccc(CN4CCOCC4)c(Cl)c3)cc3c2cnn3C2CCCC2)c(=O)[nH]1 = > 6.52
• Cc1cc(C)c(CNC(=O)c2cc(Br)cc3c2cnn3C2CCN(C(=O)C(C)(C)C)CC2)c(=O)[nH]1 = > 6.52
• Cc1cc(C)c(CNC(=O)c2cc(N3CCC(C4CCNCC4)CC3)nc3c2cnn3C(C)C)c(=O)[nH]1 = 6.00 to 6.52
• Cc1cc(C)c(CNC(=O)c2cc(CN(C)CCN(C)C)cc3c2cnn3C2CCCC2)c(=O)[nH]1 = 5.52 to 6.00

====

target: EZH2 (Homo sapiens (Human), UniProt Q15910); test: PRC2 enzyme assay on peptide substrates; assay type: biochemical; details: PRC2 enzyme assays on peptide substrates; 4 nM enzyme, 30 min preincubation at 25° C.; read-out: EZH2 IC50
pIC50: −log10 of the molar value.
REPORTED_PROPERTY: pIC50

• Cc1cc(CN(C)CCCN(C)C)c(CNC(=O)c2cccc3c2cnn3C2CCCC2)c(=O)[nH]1 [Compound D-80] = 5.52 to 6.00
• Cc1cc(C)c(CNC(=O)c2cc(-c3cccc(CN4CCN(C)CC4)c3)cc3c2cnn3C(C)C)c(=O)[nH]1 [Compound C-24] = > 6.52
• Cc1cc(C)c(CNC(=O)c2cc(-c3ccc(CN4CCOCC4)cc3Cl)cc3c2cnn3C2CCCC2)c(=O)[nH]1 [Compound C-32] = > 6.52
• Cc1cc(CNCC2CCOCC2)c(CNC(=O)c2cccc3c2cnn3C2CCCC2)c(=O)[nH]1 [Compound D-89] = 4.30 to 5.00

====

biological target: EZH2 (Homo sapiens (Human), UniProt Q15910); test: PRC2 enzyme assay on peptide substrates; format: biochemical; conditions: PRC2 enzyme assays on peptide substrates; 4 nM enzyme, 30 min preincubation at 25° C.; read-out: EZH2 IC50
IC50: recorded values
REPORTED_PROPERTY: IC50

• Cc1cc(C)c(CNC(=O)c2cc(C3=CC(C)(C)NC(C)(C)C3)nc3c2c(C)nn3C(C)C)c(=O)[nH]1 = 0.3 to 1 µM
• Cc1cc(C)c(CNC(=O)c2cc(C(=O)N3CCN(C)CC3)nc3c2cnn3C(C)C)c(=O)[nH]1 = 3 to 10 µM
• Cc1cc(C)c(CNC(=O)c2cc(N(C)CC(O)CO)nc3c2cnn3C(C)C)c(=O)[nH]1 (centres unmarked) = 3 to 10 µM
• CC(=O)n1ncc2c(C(=O)NCc3c(C)cc(C)[nH]c3=O)cc(C3=CC(C)(C)NC(C)(C)C3)nc21 = 10 to 50 µM
• Cc1[nH]c(=O)c(CNC(=O)c2cc(C3=CC(C)(C)NC(C)(C)C3)nc3c2cnn3C(C)C)c(C)c1Cc1ccccc1 = 3 to 10 µM
• Cc1cc(C)c(CNC(=O)c2cc(-c3cnn(CCN4CCOCC4)c3)cc3c2cnn3C2CCCC2)c(=O)[nH]1 = < 0.3 µM
• Cc1cc(C)c(CNC(=O)c2cc(NCCS(C)(=O)=O)nc3c2cnn3C(C)C)c(=O)[nH]1 = 1 to 3 µM
• Cc1cc(C)c(CNC(=O)c2cc(OC(C)C)nc3c2cnn3C(C)C)c(=O)[nH]1 = 1 to 3 µM
• Cc1cc(C)c(CNC(=O)c2cc(-c3cccnc3N3CCN(C(=O)OC(C)(C)C)CC3)nc3c2cnn3C(C)C)c(=O)[nH]1 = 3 to 10 µM
• Cc1cc(C)c(CNC(=O)c2cc(-c3cccc(CNC(=O)OC(C)(C)C)c3)nc3c2cnn3C(C)C)c(=O)[nH]1 = 1 to 3 µM
• Cc1cc(C)c(CNC(=O)c2cc(C3CC(C)(C)NC(C)(C)C3)cc3c2cnn3C2CCCC2)c(=O)[nH]1 = < 0.3 µM
• Cc1cc(C)c(CNC(=O)c2cc(C3CC(C)(C)NC(C)(C)C3)nc3c2cnn3C2COC2)c(=O)[nH]1 = 0.3 to 1 µM
• Cc1cc(C)c(CNC(=O)c2cc(Br)cc3c2cnn3C2CCN(Cc3ccccc3)CC2)c(=O)[nH]1 = 0.3 to 1 µM
• Cc1cc(C)c(CNC(=O)c2cc(-c3ccc(-c4ccccc4CN)nc3)nc3c2cnn3C(C)C)c(=O)[nH]1 = 3 to 10 µM
